- Target of assay: T1, recombinant human activated Factor VII (FVIIa) (human, UniProt P08709 61-212; P08709 213-466, ten glutamate residues of the Gla domain may be gamma-carboxylated)
- T1 construct: chains tethered by a disulfide bond; also called Factor VIIa; rFVIIa
- T1 sequence 1: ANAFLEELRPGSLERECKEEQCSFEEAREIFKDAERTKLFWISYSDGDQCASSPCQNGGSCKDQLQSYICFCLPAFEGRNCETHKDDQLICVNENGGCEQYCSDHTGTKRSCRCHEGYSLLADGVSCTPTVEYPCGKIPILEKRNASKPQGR
- T1 sequence 2: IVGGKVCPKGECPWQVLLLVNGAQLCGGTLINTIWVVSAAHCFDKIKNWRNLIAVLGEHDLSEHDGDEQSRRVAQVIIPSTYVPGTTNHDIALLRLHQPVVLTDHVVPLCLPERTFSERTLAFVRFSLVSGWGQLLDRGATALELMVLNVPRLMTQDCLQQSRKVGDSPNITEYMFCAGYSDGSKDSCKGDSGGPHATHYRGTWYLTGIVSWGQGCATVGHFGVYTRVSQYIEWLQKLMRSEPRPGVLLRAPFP
- Assay remarks: BLI (Fortebio)
// reported pKd per item
The read-out pKd is expressed as -log10 of concentration in moles per litre.

Example results:
>  <Binder>
VH SEQ ID NO 586 / VL SEQ ID NO 494 (antibody, IgG4, V domains shown, humanized 11F2; IgG4 S228P/kappa) VH: QVQLQESGPGLVKPSDTLSLTCAVSGYSISSDSAWSWIRQPPGKGLEWIGYIQYSGSTNYNPSLKSRVTMSVDTSKNQFSLKLSSVTALDTAVYYCARSVNYYGNSFAVGYWGQGTLVTVSS VL: EIVLTQSPATLSLSPGERATLSCRASQGVSDYLHWYQQKPGQAPRLLIKYASQPATGIPARFSGSGSGTDFTLTISSLEPEDVAVYYCQNGHSFPLTFGQGTKLEIK

>  <pKd>
7.77

$$$$
>  <Binder>
VH SEQ ID NO 602 / VL SEQ ID NO 382 (antibody, IgG4, V domains shown, humanized 11F2; IgG4 S228P/kappa) VH: QVQLQESGPGLVKPSQTLSLTCTVSGGSISSDSAWSWIRQPPGKGLEWIGYIQYSGSTNYNPSLKSRVTISVDTSKNQFSLKLSSVTAADTAVYYCARSVNYYGNSFAVGYWGQGTLVTVSS VL: EIVLTQSPATLSLSPGERATLSCRASQGLSDYLHWYQQKPGEAPRLLIKYASQPATGIPARFSGSGSGTDFTLTISSLEPEDFAVYYCQNGHSFPLTFGQGTKLEIK

>  <pKd>
7.85

$$$$
>  <Binder>
VH SEQ ID NO 618 / VL SEQ ID NO 470 (antibody, IgG4, V domains shown, humanized 11F2; IgG4 S228P/kappa) VH: QVQLQESGPGLVKPSQTLSLTCTVSGYSISSDSAWSWIRQFPGKGLEWIGYIQYSGSTNYNPSLKSRVTISRDTSKNQFSLKLSSVTAADTAVYYCARSVNYYGNSFAVGPWGQGTLVTVSS VL: EIVLTQSPATLSLSPGERATLSCRASQGVSDYLHWYQQKPGQAPRLLIKYASQPATGIPARFSGSGSGTDFTLTISSLEPEDFAVYYCQNGHSFPLTFGQGTKLEIK

>  <pKd>
8.92

$$$$

Qu. Dear colleague, please send me the reported pKd for VH SEQ ID NO 650 / VL SEQ ID NO 502 (antibody, IgG4, V domains shown, humanized 11F2; IgG4 S228P/kappa) VH: QVQLQESGPGLVKPSQTLSLTCTVSGYSISSDSAWSWIRQPPGKKLEWIGYIQYSGSTNYNPSLKSRVTISRDTSKNQFSLKLSSVTAADTAVYYCARSVNYYGNSFAVGPWGQGTLVTVSS VL: EIVLTQSPATLSLSPGERATLSCRASQGVSDYLHWYQQKPGQAPRLLIKYTSQPATGIPARFSGSGSGTDFTLTISSLEPEDFAVYYCQNGHSFPLTFGQGTKLEIK when you can.
Ans. 8.89

Qu. Report pKd for VH SEQ ID NO 530 / VL SEQ ID NO 430 (antibody, IgG4, V domains shown, humanized 11F2; IgG4 S228P/kappa) VH: QVQLQESGPGLVEPSQTLSLTCTVSGYSISSDSAWSWIRQPPGKGLEWIGYIQYSGSTNYNPSLKSRVTISRDTSKNQFSLKLSSVTAADTAVYYCARSVNYYGNSFAVGYWGQGTLVTVSS VL: EIVLTQSPATLSLSPGERATLSCRASQGVSDYLAWYQQKPGQAPRLLIKYASQPATGIPARFSGSGSGTDFTLTISSLEPEDFGVYYCQNGHSFPLTFGQGTKLEIK
Ans. 8.31

These entries and their values trace back to patent US20220064329A1.
